test system: MDR1; experiment: in vitro; conditions: dog, MDCK-MDR1
Description: Efflux ratio of apparent permeability across basolateral to apical side to apical to basolateral side in MDCK-MDR1 cells at 10 uM measured after 1 hr by LC-MS/MS analysis
quantity-kind: efflux ratio at 1 h, 10 µM

Answered cases to consult:
| molecule-smiles | efflux ratio at 1 h, 10 µM |
| --- | --- |
| COc1cccc([C@@H](C)NC(=O)[C@H]2CC[C@H](c3ccncc3)C[C@H]2C)c1 | 1.1 |
| COc1cccc([C@@H](C)NC(=O)N2CCN(c3ccnc(F)c3)C[C@H]2C)c1 | 2.8 |

1 = C[C@@H]1CN(c2ccncc2F)CCN1C(=O)N[C@H](C)c1cccn2nccc12
2 = COc1cccc([C@@H](C)NC(=O)N2CCN(c3ccncc3F)C[C@H]2C)c1F
Exercise: When their efflux ratio at 1 h, 10 µM values are compared, which is larger, 1 or 2 ? Select an item and report its label.
Key: 1
(1: 3.7, 2: 1.3)

----------
experiment: Metabolic stability in mouse liver microsomes assessed as intrinsic clearance at 1 uM measured upto 40 mins in presence of NADPH by LC-MS/MS analysis; format: ADME, Microsome; settings: read-out: CLH
quantity-kind: CLint scaled at 1 µM (mL/min/kg)

Answered examples (3):
| molecule-smiles | output-unit | CLint scaled at 1 µM |
| --- | --- | --- |
| COc1cccc([C@@H](C)NC(=O)[C@H]2CC[C@H](c3ccncc3)C[C@H]2C)c1 | mL/min/kg | 90 |
| C[C@@H]1CN(c2ccncc2F)CCN1C(=O)N[C@H](C)c1cccn2nccc12 | mL/min/kg | 169 |
| COc1cccc([C@@H](C)NC(=O)N2CCN(c3ccncc3F)C[C@H]2C)c1F | mL/min/kg | 79 |

1 = COc1cccc([C@@H](C)NC(=O)N2CCN(c3ccnc(F)c3)C[C@H]2C)c1
2 = COc1ccc(Cl)c([C@@H](C)NC(=O)N2CCN(c3ccncc3F)C[C@H]2C)c1
Exercise: Which value of CLint scaled at 1 µM is numerically greater: that of 1 or that of 2 ? Returns: label corresponding to the selected item.
Key: 2

----------
assay: Kinetic solubility of the compound in pH 7.4 PBS buffer incubated for 2 hrs using orbital shaker by LC-UV mass spectrometry; format: physicochemical; conditions: read-out: Kinetic_solubility
quantity-kind: solubility kinetic at 2 h (µM)

| molecule-smiles | solubility kinetic at 2 h (µM) |
| --- | --- |
| COc1cc(F)cc([C@@H](C)NC(=O)N2CCN(c3ccncc3F)C[C@H]2C)c1 | 140 |
| COc1cccc(CC(=O)Nc2cc(-c3ccnc(F)c3)cs2)c1 | 17 |
| COc1ccc(Cl)c([C@@H](C)NC(=O)N2CCN(c3ccncc3F)C[C@H]2C)c1 | 120 |

A = COc1cccc([C@@H](C)NC(=O)N2CCN(c3ccnc(F)c3)C[C@H]2C)c1
B = COc1cccc([C@@H](C)NC(=O)[C@@H]2CC[C@@H](c3ccncc3)C[C@@H]2C)c1
Exercise: # min-compare on solubility kinetic at 2 h between A and B Bench note: the answer is the label of the chosen record.
Key: B
(B: 11 µM, A: 170 µM)

a = COc1cccc([C@@H](C)NC(=O)[C@H]2CC[C@H](c3ccncc3)C[C@H]2C)c1
b = CS(=O)(=O)Nc1cccc(CC(=O)Nc2cc(-c3ccnc(F)c3)cs2)c1
Exercise: Min solubility kinetic at 2 h? a | b Respond using the label that marks the chosen record.
Key: b
(b: 77 µM, a: 130 µM)

All figures here come from ChEMBL document CHEMBL5131572.
